Ref: ChEMBL document CHEMBL1155908

organism: Rattus norvegicus; assay: Reversal of scopolamine-induced memory loss in Wistar rat assessed as reduction of number of mistakes relative to control; type: functional
The source made the active and inactive calls. The rule behind the calls is not given here.
outcome.measure: Activity

// worked examples, Activity included
> print(dat)
                                   compound  outcome.measure  observed.result
1  COc1ccc(NC(=S)N2CCOC(C3=CCCN(C)C3)C2)cc1 (stereo unspecified)         Activity               10
2  CN1CCC=C(C2CN(C(=S)Nc3ccccc3F)CCO2)C1 (stereo unspecified)         Activity           Active
3  COc1cccc(NC(=S)N2CCOC(C3=CCCN(C)C3)C2)c1 (stereo unspecified)         Activity           Active
4  CN1CCC=C(C2CN(C(=S)Nc3ccc(Cl)cc3Cl)CCO2)C1 (stereo unspecified)         Activity           Active
5  CN1CCC=C(C2CN(C(=S)Nc3ccc(F)cc3)CCO2)C1 (stereo unspecified)         Activity               11

Next compound, Activity to be filled in.
Exercise: Return Activity for the following compound: CN1CCC=C(C2CN(C(=S)Nc3ccc(Cl)cc3)CCO2)C1 (stereo unspecified)
Key: 10

---

species on record: Rattus norvegicus; test: Reversal of scopolamine-induced learning impairment and memory loss in Wistar rat on elevated plus maze assessed as transfer latency time on day 2 relative to control; assay type: functional
Calls of active or inactive are those of the source. The rule behind the calls is not given here.
outcome.measure: Activity

> print(dat)
                                   compound  observed.result
1  CN1CCC=C(C2CN(C(=S)Nc3ccc(F)cc3)CCO2)C1 (centres undefined)           Active
2  CN1CCC=C(C2CN(C(=S)Nc3ccccc3Cl)CCO2)C1 (centres undefined)             43 s
3  CN1CCC=C(C2CN(C(=S)Nc3ccc(Cl)cc3)CCO2)C1 (centres undefined)              9 s
4  COc1ccc(NC(=S)N2CCOC(C3=CCCN(C)C3)C2)cc1 (centres undefined)           Active

---

Exercise: state measured Activity for each of the compounds provided.
system: Cortex; experiment: Stimulation of (1,4,5)-trisphosphate formation in Wistar rat cerebral cortex relative to basal; type: functional; design: concentration or dose not given beside the values
Numbers only; they are read as %.

Exercise: Return Activity for the following compound: CN1CCC=C(C2CN(C(=S)Nc3ccc(Cl)cc3Cl)CCO2)C1 (stereo unspecified)
Key: 116

Exercise: Return Activity for the following compound: CN1CCC=C(C2CN(C(=S)Nc3ccc(Cl)cc3)CCO2)C1 (stereo unspecified)
Key: 216

Exercise: Return Activity for the following compound: COc1ccc(NC(=S)N2CCOC(C3=CCCN(C)C3)C2)cc1 (stereo unspecified)
Key: 178

Exercise: Return Activity for the following compound: CN1CCC=C(C2CN(C(=S)Nc3cccc(Cl)c3)CCO2)C1 (stereo unspecified)
Key: 103

Exercise: Return Activity for the following compound: "CC(=O)OCC[N+](C)(C)C"
Key: 268

Exercise: Return Activity for the following compound: CN1CCC=C(C2CN(C(=S)Nc3ccccc3)CCO2)C1 (stereo unspecified)
Key: 101

Exercise: Return Activity for the following compound: CN1CCC=C(C2CN(C(=S)Nc3ccccc3Cl)CCO2)C1 (stereo unspecified)
Key: 100

Exercise: Return Activity for the following compound: COc1ccccc1NC(=S)N1CCOC(C2=CCCN(C)C2)C1 (stereo unspecified)
Key: 100

Exercise: Return Activity for the following compound: COc1cccc(NC(=S)N2CCOC(C3=CCCN(C)C3)C2)c1 (stereo unspecified)
Key: 106

Exercise: Return Activity for the following compound: CN1CCC=C(C2CN(C(=S)Nc3ccccc3F)CCO2)C1 (stereo unspecified)
Key: 129

Exercise: Return Activity for the following compound: CN1CCC=C(C2CN(C(=S)Nc3ccc(F)cc3)CCO2)C1 (stereo unspecified)
Key: 155
